B1: TPR t1 (parent)
chain: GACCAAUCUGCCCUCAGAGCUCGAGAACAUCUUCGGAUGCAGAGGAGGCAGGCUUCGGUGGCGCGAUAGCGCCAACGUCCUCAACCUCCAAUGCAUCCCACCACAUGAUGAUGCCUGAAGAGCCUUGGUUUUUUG

Variants of: B1
METHOD: polymerase ribozyme fitness, log enrichment relative to wild type (log ratio); higher = more active; in vitro selection for triplet polymerase activity
Each entry below lists one item and its recorded polymerase ribozyme fitness (log ratio) value.
// response body must contain only the number

Guide cases for polymerase ribozyme fitness (log ratio), answers given:
stdin: Quick one: polymerase ribozyme fitness (log ratio) of GACCAAUCUGCCCUCAGAGCUCGAGAACAUCUUCGGAUGCAGAGGAGGCAGGCUUCGGUGGCGCGAUAGCGCCAACGUCCUCAACCUACAAUGCAUCCCACCACAUGAUGAUGCUUGAAGAGCCUUGGUUUUUUG [C88A C115U] ?
stdout: -0.599

stdin: Another variant to check: GACCAAUCUGCCCUCAGAGCUCGAGAACAUCUUCGGUUGCAGACGAGGCAGGGUCCGGUGACGCGAUAGCGCCAACGUCCUCAACCUCUAAUGCAUCCCACCACAUGAUGAUGCCUCAAGAGCCUUGGUUUUUUG [A37U G44C C53G U55C G61A C89U G117C]
stdout: -4.88

stdin: Another variant to check: GACCAUUCUGCCCUCAGAGCUCGAGAACAUCUUCGGAUGCAGAGGAGGCAGGCUUCGGUGGCGCGAUAGCUCCAACGUCCUGAACCUCCAAUGCAUCCCACCACAUGAUGAUGCCUGAAGAGCCUUGGUUUUUUG [A6U G71U C82G]
stdout: -0.9

stdin: Another variant to check: GACCAAUCUGCCCUCAGAGCUCGAGAACAUCUUCGAAUGCAGAGGAGGCAGGCUUCGGUGGCGCGAUAGCGCCAACGUCCUCAACCUACAAUGCAUCCCACCACAUGAUGAUGCCUGAAGAGCCUUGGUUUUUUG [G36A C88A]
stdout: -1.76

Here's the next entry for you.
stdin: Quick one: polymerase ribozyme fitness (log ratio) of GACCAAUCUACUCUCAGAUCUCGAGAACAUCUUCGGAUGCAGAGGAGGCAGGCUUCGGUGGCGCGAUAGCGCCAACGUCCUCAAUCUCCAAUGCAUCCCACCACAUGAUGAUGCCUGAAGAGUCUUGGUUUUUUG [G10A C12U G19U C85U C123U] ?
stdout: -1.68
